# Experimental system: Phospholipid hydroperoxide glutathione peroxidase GPX4 (Homo sapiens) (UniProt P36969)
# Sequence (P36969 whole entry, looked up): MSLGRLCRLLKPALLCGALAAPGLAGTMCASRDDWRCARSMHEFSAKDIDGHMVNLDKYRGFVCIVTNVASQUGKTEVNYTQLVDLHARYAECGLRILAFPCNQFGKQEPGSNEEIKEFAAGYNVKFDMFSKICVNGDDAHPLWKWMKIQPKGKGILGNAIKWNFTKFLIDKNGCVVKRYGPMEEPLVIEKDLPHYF
# Test description: Primary qHTS Assay for Inhibitors of Recombinant Selenoprotein Glutathione Peroxidase 4 (GPX4) (AID 1845192); further: nearly all actives have a fitted effect of over 65% in size
# Condition context: recombinant GPX4, GR-coupled NADPH fluorescence, 15 min; series mostly up to 50 µM
Results filed as inconclusive are left out. Calls of active or inactive are those of the source. The call rests on the fitted dose curve; in most records, active means well fitted inhibition curve with a large enough effect; inconclusive means small, poorly fitted or top-dose-only effect; inactive means flat fitted curve, though single readings scatter.

Compound	activity change, negative = inhibition
O=c1[nH]cc(N(CCCl)CCCl)c(=O)[nH]1	inactive
COC(=O)C1(C)CCC(=O)C2(C)c3c(O)cc(C(C)C)cc3C(O)C(OC(C)=O)C12 (stereo not drawn)	inactive
C/C(=C\c1csc(C)n1)[C@@H]1C[C@@H]2O[C@]2(C)CCC[C@H](C)[C@H](O)[C@@H](C)C(=O)C(C)(C)[C@@H](O)CC(=O)O1	inactive
COC1CC(O[C@H]2CC[C@]3(C=O)C4CC[C@]5(C)[C@@H](C6=CC(=O)OC6)CC[C@]5(O)[C@@H]4CC[C@]3(O)C2)OC(C)C1O[C@@H]1O[C@H](CO)[C@@H](O)[C@H](O)[C@H]1O (stereo partly drawn)	inactive
O=C(NC1CN2CCC1CC2)c1cc2ccoc2cn1 (stereo not drawn)	inactive
C=CCN1C[C@@H](C)N([C@H](c2ccc(C(=O)N(CC)CC)cc2)c2cccc(OC)c2)C[C@@H]1C	inactive
CC(=O)OC1CC(O)C2(C)C(CC(OC(C)=O)C3(C)C2CCC2(C)C(c4ccoc4)C(=O)C4OC423)C1(C)C (stereo not drawn)	inactive
CC(N)[C@H](O)c1ccc(O)c(O)c1 (stereo partly drawn)	inactive

* * *

# Tested on: DIV30
# Test description: qHTS profiling for inhibitors of Plasmodium falciparum proliferation (AID 504749); further: nearly all actives have a fitted effect of over 60% in size
# Condition context: P. falciparum in erythrocytes, SYBR Green DNA, 72 h; series mostly up to 28.7 µM
Results filed as inconclusive are left out. Activity calls are given as the source filed them. Calls come from the whole dose curve; as a rule, active = well fitted inhibition curve with a large enough effect; inconclusive = small, poorly fitted or top-dose-only effect; inactive = flat fitted curve, though single readings scatter.
Labels: True (active), False (inactive)

> print(dat)
                                    molecule  answer.label
 1               O=c1c2ccccc2[se]n1-c1ccccc1         False
 2        O[C@H]1[C@H]2[C@H](O)CCCN2C[C@H]1O         False
 3                        [Cl-].[Cl-].[Hg+2]          True
 4  CNC1(c2ccccc2Cl)CCCCC1=O (stereo not drawn)         False
 5                 c1ccc2sc(SNC3CCCCC3)nc2c1         False
 6      NCC(O)c1cccc(O)c1 (stereo not drawn)         False
 7         Clc1ccc(C2(Cn3cncn3)OCCO2)c(Cl)c1         False
 8                 CC(C)Nc1ccc(Nc2ccccc2)cc1          True
 9                   O=[N+]([O-])C(Br)(CO)CO         False
10                                  CC(=O)OO         False
11  CCCC(C)(COC(N)=O)COC(=O)NC1CC1 (stereo not drawn)         False
12             C=CCN(C1=NCCN1)c1c(Cl)cccc1Cl         False
13  CN1c2ccccc2C(NCCCCCCC(=O)O)c2ccc(Cl)cc2S1(=O)=O (stereo not drawn)         False
14  CN1C2CCC1CC(OC(c1ccccc1)c1ccc(Cl)cc1)C2 (stereo not drawn)          True
15  ClC1C(Cl)C(Cl)C(Cl)C(Cl)C1Cl (stereo not drawn)         False
16  O=C(NC(=O)c1c(F)cccc1F)Nc1ccc(Cl)c(Oc2ncc(C(F)(F)F)cc2Cl)c1         False
17  CC(C)(O)C1C2OC(=O)C1C1(O)CC3OC34C(=O)OC2C14C (stereo not drawn)         False
18     O=C(CCl)c1ccc(Oc2ccc(C(=O)CCl)cc2)cc1         False
19  C=CCN1CCC23c4c5ccc(O)c4O[C@H]2C(=O)CC[C@@]3(O)C1C5 (stereo partly drawn)         False
20                                    O=CC=O         False
21                     CNC(=O)OCC[N+](C)(C)C         False
22                                  [O]=[Cd]         False
23                                    CCON=O         False
24  CCC1(c2ccccc2)C(=O)NC(=O)N(C(=O)c2ccccc2)C1=O (stereo not drawn)         False
25  CC[N+](C)(CC)CCOC(=O)C(O)(c1ccccc1)c1ccccc1         False
26     O=[N+]([O-])c1ccc(F)c([N+](=O)[O-])c1         False
27  CC12NC(Cc3ccccc31)c1ccccc12 (stereo not drawn)         False
28    O=C1CCCCC1CN1CCCCC1 (stereo not drawn)         False
